tested on: SW-620 colon; assay: NCI-60 one-dose screen, 48 h (100 = growth as untreated, 0 = no growth, -100 = all killed); details: 10 µM unless noted
The panel holds about 83,000 compounds, 20% with a hit somewhere; the sample as a whole holds those more often. Active and inactive are the calls of the source. Rule for the calls: active = growth percent below 10; inactive = the rest.
Field: growth. Provide a value for each of the molecules that follow.

Asked: Reported growth, molecule O=C1OCC2=C1C(c1ccccc1)c1cc3c(cc1N2CCO)OCCO3 (centres undefined) : ____
Given back: 21.1% (inactive)

Asked: growth for COC1/C=C/OC2(C)Oc3c(C)c(O)c4c(O)c(c(/C=N/N(c5ccccc5)c5ccccc5)c(O)c4c3C2=O)NC(=O)C(C)=C/C=C/C(C)C(O)C(C)C(O)C(C)C(OC(C)=O)C1C (centres undefined) ?
Given back: 4.75% (active)

Asked: So what does the record say about growth for CCC(C)(C)c1ccc(Nc2ccc(Nc3ccc(C(C)(C)CC)cc3)cc2)cc1 ?
Given back: 85.5% (inactive)

Asked: Entry under review: Cc1cc(Cl)nc(N2CCN(CCNc3ccnc4cc(Cl)ccc34)CC2)n1 . Reported growth?
Given back: 45.3% (inactive)
